Overview of recorded pIC50 for various compounds
# TARGET_OR_SYSTEM: Recombinant IDO1 (Homo sapiens (Human))
# Sequence (P14902 whole entry, species assumed): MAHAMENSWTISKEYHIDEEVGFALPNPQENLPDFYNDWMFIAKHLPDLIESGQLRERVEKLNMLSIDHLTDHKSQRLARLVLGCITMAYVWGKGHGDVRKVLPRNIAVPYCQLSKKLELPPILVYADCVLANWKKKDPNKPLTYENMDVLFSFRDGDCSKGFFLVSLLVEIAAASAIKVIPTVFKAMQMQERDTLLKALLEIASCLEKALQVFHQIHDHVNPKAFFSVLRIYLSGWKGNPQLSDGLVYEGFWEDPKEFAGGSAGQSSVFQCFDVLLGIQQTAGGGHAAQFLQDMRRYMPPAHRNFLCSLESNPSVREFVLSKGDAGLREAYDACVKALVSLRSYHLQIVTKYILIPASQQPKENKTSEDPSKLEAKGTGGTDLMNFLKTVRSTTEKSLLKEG
# ASSAY_EXPLANATION: IDO1 enzymatic assay
# RUN_CONDITIONS: 50 nM IDO1, 1.3 mM D-tryptophan, pH 7.5, read-out: Enzyme assay IC50
pIC50: −log10 of the molar value.
PARAMETER_MEASURED: pIC50

[[record]]
compound = "Cc1ccc2[nH]c(C[C@H]3CC[C@H](c4ccnc5ccc(F)cc54)CC3)nc2c1"
obs_value = "< 5.00"

[[record]]
compound = "Clc1ccc2[nH]c(C[C@H]3CC[C@@H](c4ccccc4)CC3)nc2c1 [Example A34b]"
obs_value = 5.32

[[record]]
compound = "Clc1ccc2[nH]c(CC3CCC(c4cnc5ccccc5c4)CC3)nc2c1 (centres unmarked)"
obs_value = "< 5.00"

[[record]]
compound = "Cc1ccc2[nH]c(C[C@H]3CC[C@@H](c4ccnc5ccc(F)cc54)CC3)nc2c1"
obs_value = "< 5.00"

[[record]]
compound = "Clc1ccc2[nH]c(CC3CCC(c4cccc5ncccc45)CC3)nc2c1 (centres unmarked)"
obs_value = "< 8.00"

[[record]]
compound = "Clc1ccc2[nH]c(CC3CCC(c4ccc5ccccc5n4)CC3)nc2c1 (centres unmarked)"
obs_value = 5.28

[[record]]
compound = "Cc1cc2nc(C[C@H]3CC[C@H](c4ccnc5ccc(F)cc54)CC3)[nH]c2cc1C"
obs_value = "< 5.00"

[[record]]
compound = "FC(F)(F)c1ccc2[nH]c(C[C@H]3CC[C@@H](c4ccccc4)CC3)nc2c1 [Example A33b]"
obs_value = 5.09


---

# TARGET_OR_SYSTEM: cellular IDO1 in HeLa cells (Homo sapiens (Human))
# ASSAY_EXPLANATION: HeLa Cell-Based IDO1 Kyn (Kynurenine) Production Assay
# RUN_CONDITIONS: IFN-γ induced IDO1, 48 hours incubation, Kyn absorbance at 480 nm
Reported log10 EC50 values for the following compounds.
PARAMETER_MEASURED: log10 EC50 (log10 of the value in nM)

[[record]]
compound = "FC(F)(F)c1ccc2[nH]c(C[C@H]3CC[C@@H](c4ccccc4)CC3)nc2c1 [Example A33b]"
obs_value = 0.91

[[record]]
compound = "CC(c1nc2cc(C(=O)NC3CC3)c(F)c(F)c2[nH]1)[C@H]1CC[C@@H](c2ccnc3ccc(F)cc32)CC1 (stereo partly shown)"
obs_value = 0.95

[[record]]
compound = "C[C@@H](c1nc2c(F)cc(F)c(F)c2[nH]1)[C@H]1CC[C@@H](c2ccnc3ccc(F)cc32)CC1"
obs_value = 0.15

[[record]]
compound = "Fc1ccc2nccc(C3CCC(c4nc5cc(Br)ccc5[nH]4)CC3)c2c1 (stereo not shown)"
obs_value = 0.96

[[record]]
compound = "FC(F)(F)c1cc(C2CCC(Cc3nc4cc(Cl)ccc4[nH]3)CC2)ccn1 (stereo not shown)"
obs_value = 2.25

[[record]]
compound = "C[C@H](c1nc2cc(F)c(-c3cccnc3)cc2[nH]1)[C@H]1CC[C@@H](c2ccnc3ccc(F)cc32)CC1"
obs_value = 1.80

[[record]]
compound = "Fc1ccc2nccc([C@H]3CC[C@H](c4nc5cc(F)c(F)cc5[nH]4)CC3)c2c1"
obs_value = 3.13


---

Measured IC50 of individual entries
# TARGET_OR_SYSTEM: Recombinant IDO1 (Homo sapiens (Human))
# ASSAY_EXPLANATION: IDO1 enzymatic assay
# RUN_CONDITIONS: 50 nM IDO1, 1.3 mM D-tryptophan, pH 7.5, read-out: Enzyme assay IC50
PARAMETER_MEASURED: IC50

[[record]]
compound = "O=C(O)c1ccc2[nH]c(CC3CCC(c4ccnc5ccc(F)cc45)CC3)nc2c1 (centres unmarked)"
obs_value = "> 10 µM"

[[record]]
compound = "Fc1ccc2nccc([C@H]3CC[C@@H](Cc4nc5cc(F)c(F)cc5[nH]4)CC3)c2c1"
obs_value = "> 10 µM"

[[record]]
compound = "Clc1cccc2[nH]c(C[C@H]3CC[C@@H](c4ccccc4)CC3)nc12"
obs_value = "> 10 µM"

[[record]]
compound = "Clc1ccc2[nH]c(CC3CCN(c4ccnc5ccccc45)CC3)nc2c1"
obs_value = "> 10 µM"

[[record]]
compound = "Fc1ccc([C@H]2CC[C@H](Cc3nc4cc(Cl)ccc4[nH]3)CC2)cc1 [Example A30a]"
obs_value = "> 10 µM"

[[record]]
compound = "Fc1cc2nc(C[C@H]3CC[C@@H](c4ccccc4)CC3)[nH]c2cc1Br [Example A37b]"
obs_value = "6.9 µM"

[[record]]
compound = "Fc1ccc2nccc(N3CCC(Cc4nc5cc(Cl)ccc5[nH]4)CC3)c2c1"
obs_value = "> 10 µM"

[[record]]
compound = "Fc1ccc2nccc(C3CCN(CCc4nc5cc(Cl)ccc5[nH]4)CC3)c2c1"
obs_value = "> 10 µM"

[[record]]
compound = "Fc1ccc2nccc(C3CCC(Cc4nc5cc(Cl)c(Cl)cc5[nH]4)CC3)c2c1 (centres unmarked)"
obs_value = "> 10 µM"

[[record]]
compound = "FC(F)(F)c1ccc2[nH]c(C[C@H]3CC[C@H](c4ccccc4)CC3)nc2c1 [Example A33a]"
obs_value = "> 10 µM"

[[record]]
compound = "Fc1ccc([C@H]2CC[C@@H](Cc3nc4cc(Cl)ccc4[nH]3)CC2)cc1 [Example A30b]"
obs_value = "> 10 µM"

[[record]]
compound = "Fc1ccc2nccc([C@H]3CC[C@H](Cc4nc5cc(C6CC6)ccc5[nH]4)CC3)c2c1"
obs_value = "> 10 µM"

[[record]]
compound = "Fc1ccc2nccc(C3CCC(Cc4nc5cc(Cl)ccc5[nH]4)CC3)c2c1 (centres unmarked)"
obs_value = "> 10 µM"

[[record]]
compound = "Cc1cc2nc(C[C@H]3CC[C@@H](c4ccnc5ccc(F)cc54)CC3)[nH]c2cc1C"
obs_value = "> 10 µM"

[[record]]
compound = "Fc1ccc2nccc([C@H]3CC[C@H](Cc4nc5cc(F)c(F)cc5[nH]4)CC3)c2c1"
obs_value = "> 10 µM"

[[record]]
compound = "Clc1ccc2[nH]c(C[C@H]3CC[C@H](c4ccnc5ccccc54)CC3)nc2c1 [Example A10a]"
obs_value = "> 10 µM"

[[record]]
compound = "Fc1cc2nc(C[C@H]3CC[C@H](c4ccccc4)CC3)[nH]c2cc1Br [Example A37a]"
obs_value = "> 10 µM"

[[record]]
compound = "COC(=O)c1ccc2[nH]c(CC3CCC(c4ccnc5ccc(F)cc45)CC3)nc2c1 (centres unmarked)"
obs_value = "> 10 µM"

[[record]]
compound = "c1ccc(C2CCC(Cc3nc4ccccc4[nH]3)CC2)cc1 (centres unmarked)"
obs_value = "8.1 µM"

[[record]]
compound = "Fc1ccc2nccc([C@H]3CC[C@@H](Cc4nc5cc(C6CC6)ccc5[nH]4)CC3)c2c1"
obs_value = "> 10 µM"

[[record]]
compound = "Clc1ccc2[nH]c(C[C@H]3CC[C@H](c4ccccc4)CC3)nc2c1 [Example A34a]"
obs_value = "8 µM"

[[record]]
compound = "Clc1ccc2[nH]c(C[C@H]3CC[C@@H](c4ccc5ncccc5c4)CC3)nc2c1 [Example A23b]"
obs_value = "3.25 µM"

[[record]]
compound = "c1ccc2nc(C3CCC(Cc4nc5ccccc5[nH]4)CC3)ccc2c1 (centres unmarked)"
obs_value = "> 10 µM"

[[record]]
compound = "Clc1ccc2[nH]c(C[C@H]3CC[C@H](c4ccc5ncccc5c4)CC3)nc2c1 [Example A23a]"
obs_value = "> 10 µM"

[[record]]
compound = "Clc1ccc2[nH]c(C[C@H]3CC[C@@H](c4ccnc5ccccc54)CC3)nc2c1 [Example A10b]"
obs_value = "> 10 µM"

[[record]]
compound = "COc1ccc2[nH]c(CC3CCC(c4ccc5ccccc5n4)CC3)nc2c1 (centres unmarked)"
obs_value = "> 10 µM"


---

# TARGET_OR_SYSTEM: cellular IDO1 in HeLa cells (Homo sapiens (Human), UniProt P14902)
# Sequence (P14902 whole entry): as the sequence (P14902 whole entry, species assumed) above
# ASSAY_EXPLANATION: HeLa Cell-Based IDO1 Kyn (Kynurenine) Production Assay
# RUN_CONDITIONS: IFN-γ induced IDO1, 48 hours incubation, Kyn absorbance at 480 nm
PARAMETER_MEASURED: log10(EC50) (log10 of the value in nM)

[[record]]
compound = "Clc1ccc2[nH]c(C[C@H]3CC[C@H](c4ccnc5ccccc54)CC3)nc2c1 [Example A10a]"
obs_value = 1.96

[[record]]
compound = "C[C@@H](c1nc2c(Cl)c(F)c(F)cc2[nH]1)[C@H]1CC[C@@H](c2ccnc3ccc(F)cc32)CC1 [Example B125]"
obs_value = 0.94

[[record]]
compound = "COC(=O)c1cc(C)c2nc([C@H](C)[C@H]3CC[C@@H](c4ccnc5ccc(F)cc54)CC3)[nH]c2c1 [Example B141]"
obs_value = 0.84

[[record]]
compound = "Fc1ccc2nccc([C@H]3CC[C@H](Cc4nc5cc(OC6CC6)ccc5[nH]4)CC3)c2c1 [Example A8a]"
obs_value = 2.72

[[record]]
compound = "Fc1ccc(C2CCC(Cc3nc4cc(Cl)ccc4[nH]3)CC2)c2ncccc12 (stereo not drawn) [Example A24]"
obs_value = 2.20

[[record]]
compound = "Fc1ccc2nccc(C3CCC(c4nc5cc(Cl)c(F)cc5[nH]4)CC3)c2c1 (single isomer, unassigned) [Example C1b]"
obs_value = 1.38

[[record]]
compound = "C[C@H](c1nc2cc(Cl)c(F)cc2[nH]1)[C@H]1CC[C@@H](c2ccnc3ccc(F)cc32)CC1 [Example B2b]"
obs_value = 1.70

[[record]]
compound = "CC(c1nc2ccc(S(C)(=O)=O)cc2[nH]1)[C@H]1CC[C@@H](c2ccnc3ccc(F)cc32)CC1 (stereo partly drawn) [Example B167]"
obs_value = 1.27

[[record]]
compound = "Fc1ccc2nccc([C@H]3CC[C@@H](c4nc5cc(F)c(F)cc5[nH]4)CC3)c2c1 [Example C7b]"
obs_value = 1.85

[[record]]
compound = "C[C@@H](c1nc2cc(-c3ncccn3)ccc2[nH]1)[C@H]1CC[C@@H](c2ccnc3ccc(F)cc32)CC1 [Example B157]"
obs_value = 0.58

[[record]]
compound = "Fc1ccc2nccc([C@H]3CC[C@H](Cc4nc5cc6c(cc5[nH]4)OCO6)CC3)c2c1 [Example A7a]"
obs_value = 1.94

[[record]]
compound = "Clc1ccc2[nH]c(CC3CCC(c4ccc5ccccc5n4)CC3)nc2c1 (stereo not drawn) [Example A18]"
obs_value = 1.70

[[record]]
compound = "Fc1ccc2nccc(C3CCN(Cc4nc5cc(Cl)ccc5[nH]4)CC3)c2c1 [Example A39]"
obs_value = 2.18

[[record]]
compound = "Cc1ccc2[nH]c(C[C@H]3CC[C@@H](c4ccnc5ccc(F)cc54)CC3)nc2c1 [Example A2b]"
obs_value = 1.72

[[record]]
compound = "Cc1cc2nc(C[C@H]3CC[C@H](c4ccnc5ccc(F)cc54)CC3)[nH]c2cc1C [Example A9a]"
obs_value = 2.27

[[record]]
compound = "Cc1cc(C(=O)NC2CCC2)cc2nc([C@@H](C)[C@H]3CC[C@@H](c4ccnc5ccc(F)cc54)CC3)[nH]c12 [B188]"
obs_value = 2.90

[[record]]
compound = "CC(c1nc2cc3c(cc2[nH]1)CCC(=O)N3)[C@H]1CC[C@@H](c2ccnc3ccc(F)cc32)CC1 (stereo partly drawn) [Example B159]"
obs_value = 1.83

[[record]]
compound = "Fc1cc2nc(C[C@H]3CC[C@H](c4ccc(F)c5ncccc54)CC3)[nH]c2cc1F [Example A26a]"
obs_value = 2.67

[[record]]
compound = "Clc1ccc2[nH]c(CCC3CC4CC3CC4c3ccccc3)nc2c1 (stereo not drawn) [Example D2]"
obs_value = 1.84

[[record]]
compound = "COC(=O)c1cccc2[nH]c([C@H](C)[C@H]3CC[C@@H](c4ccnc5ccc(F)cc54)CC3)nc12 [Example B210]"
obs_value = 1.42

[[record]]
compound = "c1ccc(C2CCC(Cc3nc4ccccc4[nH]3)CC2)cc1 (stereo not drawn) [Example A32]"
obs_value = 2.16

[[record]]
compound = "Cc1noc(-c2ccc3nc([C@H](C)[C@H]4CC[C@@H](c5ccnc6ccc(F)cc65)CC4)[nH]c3c2)n1 [Example B220]"
obs_value = -0.02

[[record]]
compound = "Cc1c(Br)ccc2[nH]c(C[C@H]3CC[C@H](c4ccnc5ccc(F)cc54)CC3)nc12 [Example A11a]"
obs_value = 2.13

[[record]]
compound = "CCOC(=O)c1cc2nc([C@H](C)[C@H]3CC[C@@H](c4ccnc5ccc(F)cc54)CC3)[nH]c2cc1C [Example B201]"
obs_value = 0.20

[[record]]
compound = "Cc1ccc2[nH]c(C3CCC(c4ccnc5ccc(F)cc45)CC3)nc2c1 (stereo not drawn) [Example C3]"
obs_value = 1.20

[[record]]
compound = "Clc1ccc2[nH]c(C[C@H]3CC[C@@H](c4ccccc4)CC3)nc2c1 [Example A34b]"
obs_value = 1.94


Data origin, for the record: patent US11472788B2
